Biological target: Recombinant KRAS-G12V (SEQ ID NO: 3) (Homo sapiens, UniProt P01116, G12V)
Sequence (P01116 with tags, fused parts or gaps isoform P01116-2 G12V): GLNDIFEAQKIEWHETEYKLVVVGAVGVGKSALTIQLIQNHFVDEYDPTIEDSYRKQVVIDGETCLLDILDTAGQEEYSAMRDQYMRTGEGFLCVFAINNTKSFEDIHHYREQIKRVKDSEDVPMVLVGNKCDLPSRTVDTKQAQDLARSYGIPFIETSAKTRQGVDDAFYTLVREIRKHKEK
Assay: SOS-catalyzed guanine nucleotide exchange (GNE) assay, KRAS-G12V
Below, each of the compounds is paired with its reported IC50 value.
Measured parameter: IC50

>>> df
                                   compound  value_reported
0  CC1(O)CN(c2nc(OC[C@@]34CCCN3C[C@H](F)C4)nc3c(F)c(-c4cc(O)cc5cccc(Cl)c45)c(F)cc23)CCC1(F)F (some centres unmarked)          358 nM
1  Cc1cc2[nH]ncc2c(-c2c(F)cc3c(N4CCC[C@H](O)CC4)nc(OC[C@@]45CCCN4C[C@H](F)C5)nc3c2F)c1C(F)(F)F          470 nM
2  C#Cc1cccc2cc(O)cc(-c3c(F)cc4c(N5CCC[C@@](C)(O)C5)nc(OC[C@@]56CCCN5C[C@H](F)C6)nc4c3F)c12            3 nM
3  CC1(O)CCCCN(c2nc(OC[C@@]34CCCN3C[C@H](F)C4)nc3c(F)c(-c4cc(O)cc5cccc(Cl)c45)c(F)cc23)C1 (single isomer, unassigned)          300 nM
4  C#Cc1cccc2cc(O)cc(-c3ncc4c(N5CCC[C@@](C)(O)C5)nc(OC[C@]5(CN(C)C)CC5(F)F)nc4c3F)c12            1 nM

====

System: NCI-H358 cells containing homozygous KRAS-G12C activating mutation (p-ERK)
Conditions: Homo sapiens, NCI-H358, 2 h, read-out: G12C H358 IC50 (nM)
Decide using IC50 alone. Strictly below 500 nM: yes (1). Equal to or above 500 nM: no (0).

In [3]: df
Out[3]:
                                    compound                            assayed_system  category
 0  CN1CCC[C@H]1COc1nc(N2CCC[C@@](C)(O)C2)c2cc(F)c(-c3cc(O)cc4cccc(Cl)c34)c(F)c2n1  NCI-H358 cells containing homozygous KRAS-G12C activating mutation (p-ERK)   yes (1)
 1  CC1(O)CN(c2nc(OC[C@@]34CCCN3C[C@H](F)C4)nc3c(F)c(-c4cc(O)cc5cccc(Cl)c45)c(F)cc23)CCC1(F)F (stereo partly shown)  NCI-H358 cells containing homozygous KRAS-G12C activating mutation (p-ERK)   yes (1)
 2  Cc1cc2[nH]ncc2c(-c2c(F)cc3c(N4CCOC[C@@](C)(O)C4)nc(OC[C@@]45CCCN4C[C@H](F)C5)nc3c2F)c1C(F)(F)F  NCI-H358 cells containing homozygous KRAS-G12C activating mutation (p-ERK)   yes (1)
 3  CN(C)CC1(COc2nc(N3CCCC(C)(O)C3)c3cc(F)c(-c4cc(O)ccc4OC(F)(F)F)c(F)c3n2)CC1 (stereo not shown)  NCI-H358 cells containing homozygous KRAS-G12C activating mutation (p-ERK)    no (0)
 4  C#Cc1cccc2cc(O)cc(-c3ncc4c(N5CCC[C@@](C)(O)C5)nc(OC[C@]5(CN(C)C)CC5(F)F)nc4c3F)c12  NCI-H358 cells containing homozygous KRAS-G12C activating mutation (p-ERK)   yes (1)
 5  C[C@@]1(O)COCCN(c2nc(OC[C@@]34CCCN3C[C@H](F)C4)nc3c(F)c(-c4cc(O)cc5cccc(Cl)c45)c(F)cc23)C1  NCI-H358 cells containing homozygous KRAS-G12C activating mutation (p-ERK)   yes (1)
 6  C#Cc1cccc2cc(O)cc(-c3ncc4c(N5CCC[C@@](C)(O)C5)nc(OCC56CCCN5CCC6)nc4c3F)c12  NCI-H358 cells containing homozygous KRAS-G12C activating mutation (p-ERK)   yes (1)
 7  C#Cc1cccc2cc(O)cc(-c3ccc4c(N5CCC[C@@](C)(O)C5)nc(OCC5(CN(C)C)CC5)nc4c3F)c12  NCI-H358 cells containing homozygous KRAS-G12C activating mutation (p-ERK)   yes (1)
 8  C[C@@H]1C[C@@H](O)CN1c1nc(OC[C@@]23CCCN2C[C@H](F)C3)nc2c(F)c(-c3cc(O)cc4cccc(Cl)c34)c(F)cc12  NCI-H358 cells containing homozygous KRAS-G12C activating mutation (p-ERK)    no (0)
 9  Oc1cc(-c2c(F)cc3c(N4CCCCC(O)C4)nc(OC[C@@]45CCCN4C[C@H](F)C5)nc3c2F)c2c(Cl)cccc2c1 (stereo partly shown)  NCI-H358 cells containing homozygous KRAS-G12C activating mutation (p-ERK)    no (0)
10  Cc1cc2[nH]ncc2c(-c2c(F)cc3c(N4CCC[C@H](O)CC4)nc(OC[C@@]45CCCN4C[C@H](F)C5)nc3c2F)c1C(F)(F)F  NCI-H358 cells containing homozygous KRAS-G12C activating mutation (p-ERK)    no (0)
11  Oc1cc(-c2c(F)cc3c(N4CCC[C@H](O)CC4)nc(OC[C@@]45CCCN4C[C@H](F)C5)nc3c2F)c2c(Cl)cccc2c1  NCI-H358 cells containing homozygous KRAS-G12C activating mutation (p-ERK)    no (0)
12  C#Cc1cccc2cc(O)cc(-c3c(F)cc4c(N5CCCC(O)(CO)C5)nc(OC[C@@]56CCCN5C[C@H](F)C6)nc4c3F)c12 (stereo partly shown)  NCI-H358 cells containing homozygous KRAS-G12C activating mutation (p-ERK)   yes (1)
13  Cc1cc(N)nc(-c2c(Cl)cc3c(N4CCCC(C)(O)C4)nc(OC[C@@]45CCCN4C[C@H](F)C5)nc3c2F)c1C(F)(F)F (single isomer, unassigned)  NCI-H358 cells containing homozygous KRAS-G12C activating mutation (p-ERK)    no (0)
14  Nc1nc2c(-c3c(Cl)cc4c(N5CCCC(O)CC5)nc(OC[C@@]56CCCN5C[C@H](F)C6)nc4c3F)c(F)cc(F)c2o1 (stereo partly shown)  NCI-H358 cells containing homozygous KRAS-G12C activating mutation (p-ERK)    no (0)
15  C#Cc1cccc2cc(O)cc(-c3c(Cl)cc4c(N5CCC[C@@](C)(O)C5)nc(OC[C@@]56CCCN5C[C@H](F)C6)nc4c3F)c12  NCI-H358 cells containing homozygous KRAS-G12C activating mutation (p-ERK)   yes (1)
16  C#Cc1cccc2cc(O)cc(-c3c(F)cc4c(N5CCC[C@@](C)(O)C5)nc(OC[C@]5(CO)CC5(F)F)nc4c3F)c12  NCI-H358 cells containing homozygous KRAS-G12C activating mutation (p-ERK)   yes (1)
17  Oc1cc(-c2c(F)cc3c(N4CCCC(O)(C(F)(F)F)C4)nc(OC[C@@]45CCCN4C[C@H](F)C5)nc3c2F)c2c(Cl)cccc2c1 (single isomer, unassigned)  NCI-H358 cells containing homozygous KRAS-G12C activating mutation (p-ERK)    no (0)
18  C#Cc1cccc2cc(O)cc(-c3ncc4c(N5CCC[C@@](C)(O)C5)nc(OC[C@@]56CCCN5C[C@H](F)C6)nc4c3F)c12  NCI-H358 cells containing homozygous KRAS-G12C activating mutation (p-ERK)   yes (1)
19  C#Cc1cccc2cc(O)cc(-c3c(F)cc4c(N5CCC[C@@](C)(O)C5)nc(OCC5(CN6CC[C@@H](F)C6)CC5)nc4c3F)c12  NCI-H358 cells containing homozygous KRAS-G12C activating mutation (p-ERK)   yes (1)
20  C#Cc1cccc2cc(O)cc(-c3c(F)cc4c(N5CCCC(O)(C(F)F)C5)nc(OC[C@@]56CCCN5C[C@H](F)C6)nc4c3F)c12 (stereo partly shown)  NCI-H358 cells containing homozygous KRAS-G12C activating mutation (p-ERK)   yes (1)
21  C#Cc1cccc2cc(O)cc(-c3c(F)cc4c(N5CCC[C@@](C)(O)C5)nc(OC[C@@]56CCCN5C[C@H](F)C6)nc4c3F)c12  NCI-H358 cells containing homozygous KRAS-G12C activating mutation (p-ERK)   yes (1)
22  C#Cc1c(F)ccc2cccc(-c3c(F)cc4c(N5CCC[C@@](C)(O)C5)nc(OC[C@@]56CCCN5C[C@H](F)C6)nc4c3F)c12  NCI-H358 cells containing homozygous KRAS-G12C activating mutation (p-ERK)    no (0)
23  C#Cc1c(F)ccc2cccc(-c3c(F)cc4c(N5CCC[C@@](C)(O)C5)nc(OC[C@@]56CCCN5[C@H](COC(=O)N(C)C)CC6)nc4c3F)c12  NCI-H358 cells containing homozygous KRAS-G12C activating mutation (p-ERK)   yes (1)
